tested on: NCI-H522; test: relative viability (nuclei count vs DMSO), 5 days (fraction); higher = more cells survive; conditions: first compound 0.6325 µM
Measured property: relative viability
// print number alone

Query: Give its relative viability value. Item: Cc1csc(=NC2CCCCC2)n1/N=C/c1ccc(O)c(O)c1O [MIM1] + N=C(N)NC(=N)NCCc1ccccc1 [Phenformin] (partner 250 µM)
Result: 0.665

Query: Consider the compound CN1CCN(CCOc2cc(OC3CCOCC3)c3c(Nc4c(Cl)ccc5c4OCO5)ncnc3c2)CC1 [Saracatinib] + Cc1nc(Nc2ncc(C(=O)Nc3c(C)cccc3Cl)s2)cc(N2CCN(CCO)CC2)n1 [Dasatinib] (partner 0.075 µM) and give its measured relative viability.
Result: 0.864

Query: What value of relative viability has been recorded for this entry: CN1CCN(CCOc2cc(OC3CCOCC3)c3c(Nc4c(Cl)ccc5c4OCO5)ncnc3c2)CC1 [Saracatinib] + CCNC(=O)c1noc(-c2cc(C(C)C)c(O)cc2O)c1-c1ccc(CN2CCOCC2)cc1 [Luminespib] (partner 0.01 µM)
Result: 1.11

Query: Given the entry CN1CCN(CCOc2cc(OC3CCOCC3)c3c(Nc4c(Cl)ccc5c4OCO5)ncnc3c2)CC1 [Saracatinib] + Cc1cc(Nc2cc(N3CCN(C)CC3)nc(Sc3ccc(NC(=O)C4CC4)cc3)n2)n[nH]1 [Tozasertib] (partner 0.1 µM) , report its measured relative viability.
Result: 0.534

Taken from the supplement of paper PMC10307832.
